measured on: Alpha-bungarotoxin (Bungarus multicinctus)
experiment summary: alpha-bungarotoxin binders on microarray, profiling panel, artefact control for SMM control protein annotation, biochemical, small-molecule microarray, Alexa647 label, 635/667 nm fluorescence (AID 1117)
condition notes: alpha-BTX-A647 binding fluorescence, higher = more signal
Listing: composite z-score of selected molecules
Simply state the number, no unit and no words.

>  <molecule>
Nc1cc(Br)ccc1C(=O)O

>  <measured on>
Alpha-bungarotoxin (Bungarus multicinctus)

>  <composite z-score>
1.39

$$$$
>  <molecule>
CC(C)C[C@@H]1NC(=O)CNC(=O)[C@@]23C(=O)N[C@@H](Cc4ccccc4)C2[C@H](C)[C@@]2(C)O[C@H]2C3/C=C/C/C=C\CNC1=O (some centres not stated)

>  <measured on>
Alpha-bungarotoxin (Bungarus multicinctus)

>  <composite z-score>
0.985

$$$$

Value of composite z-score reported for the molecule "O=C(CS)NCCCCCCNC(=O)[C@@H]1C[C@@H]2C(=O)NCC(=O)N2[C@@H]1c1ccc(O)cc1" is -1.04

Value of composite z-score reported for the molecule "COC(=O)[C@@]1(Cc2ccccc2)[C@H]2c3cc(C(=O)N4CCCC4)n(CCSCCO)c3C[C@H]2CN1C(=O)c1ccccc1" is 0.606

Value of composite z-score reported for the molecule "CN1C(=O)[C@@]2(Cc3ccccc3)N=C(c3ccc(OCCCO)cc3)O[C@H]2c2ccccc21" is 0.846

Value of composite z-score reported for the molecule "COc1ccc([Si](C)(C)[C@@H]2[C@@H](CC(=O)N3Cc4ccccc4C[C@H]3CO)O[C@]3(C(=O)N(c4ccccc4)c4ccccc43)[C@H]2C)cc1" is 1.26

Value of composite z-score reported for the molecule "C=CCNC(=O)[C@H]1[C@@H]2C(=O)O[C@@H](c3ccccc3)[C@@H](c3ccccc3)N2[C@@H](c2ccc(OCCO)cc2)[C@]12C(=O)Nc1ccc(C#CCNC(N)=O)cc12" is 2.07

###

measured on: Fibroblast growth factor 2 (Homo sapiens)
experiment summary: FGF2 binders on small-molecule microarrays, primary screen, biochemical, small-molecule microarray, 635/667 nm fluorescence (AID 1133)
condition notes: small-molecule microarray binding, FGF2, fluorescence 635/667; higher = more signal
Returns one of satisfied or not satisfied; satisfied when composite z-score is >= 0.03.

Solved cases below.
>  <molecule>
CCOC(=O)C[C@H]1[C@H](OC(=O)c2ccc(-c3ccccc3)cc2)[C@@H](NC(=O)Cc2ccc(OC)cc2)c2cc(OCCCO)ccc2N1C(=O)Cc1ccc(OC)cc1

>  <measured on>
Fibroblast growth factor 2 (Homo sapiens)

>  <label>
not satisfied

$$$$
>  <molecule>
CC(C)(C)OC(=O)CC[C@]12N=C(c3ccc(OCCCO)cc3)O[C@H]1c1ccccc1N(Cc1ccccc1)C2=O

>  <measured on>
Fibroblast growth factor 2 (Homo sapiens)

>  <label>
satisfied

$$$$
>  <molecule>
O=c1cccc(-c2ccc(F)cc2)o1

>  <measured on>
Fibroblast growth factor 2 (Homo sapiens)

>  <label>
satisfied

$$$$
>  <molecule>
O=C1O[C@H](c2ccccc2)[C@H](c2ccccc2)N2[C@H]1[C@@H](C(=O)Nc1nc3ccccc3s1)[C@]1(C(=O)Nc3ccc(C#CC4=CCCCC4)cc31)[C@H]2c1ccc(O)cc1

>  <measured on>
Fibroblast growth factor 2 (Homo sapiens)

>  <label>
satisfied

$$$$
>  <molecule>
CCOC(=O)C1=C[C@@H](c2ccccc2)N(S(=O)(=O)c2ccc(C)cc2)[C@H]1c1ccccc1

>  <measured on>
Fibroblast growth factor 2 (Homo sapiens)

>  <label>
satisfied

$$$$
>  <molecule>
C[C@@]12COC[C@]13C=C(Br)[C@H](C2)[C@@]1(CO1)C3=O

>  <measured on>
Fibroblast growth factor 2 (Homo sapiens)

>  <label>
not satisfied

$$$$
>  <molecule>
COc1ccc([Si](C)(C)[C@@H]2[C@@H](CC(=O)N3Cc4ccccc4C[C@H]3CO)O[C@]3(C(=O)N(Cc4ccc(N5CCC5=O)cc4)c4ccccc43)[C@H]2C)cc1

>  <measured on>
Fibroblast growth factor 2 (Homo sapiens)

>  <label>
satisfied

$$$$
>  <molecule>
COc1ccc([Si](C)(C)[C@H]2[C@H](CCO)O[C@@]3(C(=O)N(Cc4ccc(N5C(=O)c6ccccc6Oc6ccccc65)cc4)c4ccccc43)[C@@H]2C)cc1

>  <measured on>
Fibroblast growth factor 2 (Homo sapiens)

>  <label>
not satisfied

$$$$

Check the entry "O=C(O)[C@@H]1C[C@@H]2C(=O)N3CCC[C@H]3C(=O)N2[C@@H]1c1cccc(OCCO)c1" : does composite z-score equal or exceed 0.03? satisfied

Check the entry "COC(=O)[C@@]1(Cc2ccc(F)cc2)[C@H]2c3cc(C(=O)N(C)C)n(Cc4ccc(O)c(OC)c4)c3C[C@H]2CN1C(=O)c1ccccc1" : does composite z-score equal or exceed 0.03? not satisfied
